- assay target: T1, CarS antirepressor (Myxococcus xanthus, UniProt Q06911 1-111)
- T1 sequence (looked up): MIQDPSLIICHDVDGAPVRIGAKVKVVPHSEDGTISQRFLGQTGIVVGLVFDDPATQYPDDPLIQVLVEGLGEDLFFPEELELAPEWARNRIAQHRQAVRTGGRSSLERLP
- assay text: ITC
measurement type: pKd
Units for pKd: none; it is -log10 of a concentration expressed in mol/L.

May I ask what pKd has been recorded for CarANt, N-terminal DNA-binding domain of CarA (domain or fragment, Myxococcus xanthus) MTLRIRTIARMTGIREATLRAWERRYGFPRPLRSEGNNYRVYSREEVEAVRRVARLIQEEGLSVSEAIAQVKTEPPRE ? 7.92
